- experimental_target: T1, IL-23 receptor on the surface of HEK-Blue IL-23 cells (UniProt Q5VWK5 24-629, limits assumed)
- T1 sequence (looked up): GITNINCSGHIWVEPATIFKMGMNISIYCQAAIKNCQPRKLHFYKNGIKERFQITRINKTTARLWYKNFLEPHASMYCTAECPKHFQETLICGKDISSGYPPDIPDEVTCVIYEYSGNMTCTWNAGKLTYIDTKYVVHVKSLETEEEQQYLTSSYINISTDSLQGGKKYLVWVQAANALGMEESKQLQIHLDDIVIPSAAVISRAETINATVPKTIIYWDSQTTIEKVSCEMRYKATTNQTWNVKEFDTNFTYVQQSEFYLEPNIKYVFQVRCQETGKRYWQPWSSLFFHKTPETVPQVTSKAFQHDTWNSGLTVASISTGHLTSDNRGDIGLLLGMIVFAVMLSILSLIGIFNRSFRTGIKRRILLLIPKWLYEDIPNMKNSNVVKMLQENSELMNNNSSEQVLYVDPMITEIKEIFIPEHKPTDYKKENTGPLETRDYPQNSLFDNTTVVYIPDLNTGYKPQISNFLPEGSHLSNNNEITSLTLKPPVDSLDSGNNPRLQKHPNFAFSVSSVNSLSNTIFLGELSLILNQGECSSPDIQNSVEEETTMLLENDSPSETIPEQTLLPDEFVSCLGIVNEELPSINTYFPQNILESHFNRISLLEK
- experiment: cell-based or functional assay
Starred links: 1 amine or outer side, 2 acyl side, 3 side chain; linkers in the order of their positions; H or OH if unused. Positions of bridges follow the written chain, without caps; N, C: chain ends. Non-standard residues stand in square brackets, D forms with d. *: point of attachment. Yde = (2S)-2-amino-3-[4-[2-(dimethylamino)ethoxy]phenyl]propanoic acid, CN(C)CCOc1ccc(C[C@H](N[*:1])C(=O)[*:2])cc1; Trp(7-Me) = Cc1cccc2c(C[C@H](N)C(=O)O)c[nH]c12; 2Nal = N[C@@H](Cc1ccc2ccccc2c1)C(=O)O; εLys = N[C@@H](CCCCN[*:1])C(=O)[*:2]; Palmitoyl = CCCCCCCCCCCCCCCC(=O)*; 3Pal = N[C@@H](Cc1cccnc1)C(=O)O; αMeK = C[C@](N)(CCCCN)C(=O)O; Thp = NC1(C(=O)O)CCOCC1; Ava = NCCCCC(=O)O; βAla = NCCC(=O)O; Sar = CNCC(=O)O
quantity_name: pSTAT3 (nM)
Return type: number; implicit unit nM.

{"binder": "[Ava]C[εLys](Ac)[Trp(7-Me)]K(Ac)C[Yde][2Nal][αMeK](Palmitoyl)EN[3Pal][Sar]-NH2 (lactam N-10; disulfide 2-6; also: Cys2 carboxyl joined to epsilon-NH2 of Lys3 (isopeptide bond), Lys3 alpha-N acetylated) [Compound of SEQ ID NO: 67]", "quantity_name": "pSTAT3 (nM)", "measured_result": 22.6}

Now let's try a different one.
For record [Ava]CNT[Trp(7-Me)]K(Ac)C[Yde][2Nal][Thp]ENH[βAla]-NH2 (lactam N-11; disulfide 2-7; SMILES CC(=O)NCCCC[C@@H]1NC(=O)[C@H](Cc2c[nH]c3c(C)cccc23)NC(=O)[C@H]([C@@H](C)O)NC(=O)[C@H](CC(N)=O)NC(=O)[C@@H]2CSSC[C@H](NC1=O)C(=O)N[C@@H](Cc1ccc(OCCN(C)C)cc1)C(=O)N[C@@H](Cc1ccc3ccccc3c1)C(=O)NC1(CCOCC1)C(=O)N[C@H](C(=O)N[C@@H](CC(N)=O)C(=O)N[C@@H](Cc1c[nH]cn1)C(=O)NCCC(N)=O)CCC(=O)NCCCCC(=O)N2) [Compound of SEQ ID NO: 49] the listed pSTAT3 (nM) is 1.79

Source listed as patent US20260258084A1.
